B1: LINE1-full (parent)
chain: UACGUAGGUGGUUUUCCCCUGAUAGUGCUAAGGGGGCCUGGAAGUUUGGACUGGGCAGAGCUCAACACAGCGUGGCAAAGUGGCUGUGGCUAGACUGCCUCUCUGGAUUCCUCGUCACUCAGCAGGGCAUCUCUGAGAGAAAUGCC

- Variants of: B1
- MEASUREMENT_PROTOCOL: self-cleavage, relative activity (ratio to wild type); higher = more cleavage; in vitro, sequencing; the parent is a self-cleaving ribozyme
Quick rule: self-cleavage of at least 1 means MET, below that means NOT MET.

MUTATIONS: U15A A124G
GROUP: NOT MET
//
MUTATIONS: G7U U73A
GROUP: MET
//
MUTATIONS: A43U C99U
GROUP: NOT MET
//
MUTATIONS: A2U U102C
GROUP: MET
//
MUTATIONS: G21A U96A
GROUP: NOT MET
//
MUTATIONS: U14A A121C
GROUP: MET
//
MUTATIONS: U46C U132G
GROUP: MET
//
MUTATIONS: G74A A129U
GROUP: MET
//
MUTATIONS: A140U C145U
GROUP: MET
